- Tested on: novel environment-stressed mice
- assay protocol: In Vivo Assay-Stress-Induced Fecal Output (Fecal Output for 1 hr)
- Design: species or system mouse
- condition label: 30 mg/kg oral, novel environment-stressed mice, 1 hr
property label: Fecal Output (# pellets) cpd

[
  {
    "smiles str": "Cc1cc(C(N)=O)cc(C)c1C[C@H](N)C(=O)N(Cc1ccccc1)[C@@H](C)c1nc(-c2ccccc2)c[nH]1",
    "u": "pellets",
    "endpoint result": 7.8
  },
  {
    "smiles str": "Cc1cc(O)cc(C)c1C[C@H](N)C(=O)N(Cc1c(Cl)cccc1Cl)[C@@H](C)c1nc(-c2ccccc2)c[nH]1",
    "u": "pellets",
    "endpoint result": 4.8
  },
  {
    "smiles str": "Cc1cc(C(N)=O)cc(C)c1C[C@H](N)C(=O)N(Cc1nc(-c2ccccc2)c[nH]1)C(C)C",
    "u": "pellets",
    "endpoint result": 5.5
  },
  {
    "smiles str": "Cc1cc(O)cc(C)c1C[C@H](N)C(=O)N(Cc1ccccc1)[C@@H](C)c1nc(-c2ccccc2)c[nH]1",
    "u": "pellets",
    "endpoint result": 3.7
  },
  {
    "smiles str": "Cc1cc(C(N)=O)cc(C)c1C[C@H](N)C(=O)N(Cc1ccccc1)[C@@H](C)c1nc(-c2ccc(Cl)cc2)c(C)[nH]1",
    "u": "pellets",
    "endpoint result": 3.9
  },
  {
    "smiles str": "Cc1cc(O)cc(C)c1C[C@H](N)C(=O)N(Cc1ccccn1)[C@@H](C)c1nc(-c2ccccc2)c[nH]1",
    "u": "pellets",
    "endpoint result": 5.0
  },
  {
    "smiles str": "Cc1cc(C(N)=O)cc(C)c1C[C@H](N)C(=O)N(C(C)C)[C@@H](CO)c1nc(-c2ccccc2)c[nH]1",
    "u": "pellets",
    "endpoint result": 7.9
  }
]

---

Quick reference: log10 Ki of the listed items.
- system tested: human mu opioid receptor (Homo sapiens, UniProt P35372)
- Construct: purchased Perkin Elmer RBHOMM400UA; host or cells: Chinese Hamster Ovary cells (recombinant expression)
- Sequence (P35372 whole entry): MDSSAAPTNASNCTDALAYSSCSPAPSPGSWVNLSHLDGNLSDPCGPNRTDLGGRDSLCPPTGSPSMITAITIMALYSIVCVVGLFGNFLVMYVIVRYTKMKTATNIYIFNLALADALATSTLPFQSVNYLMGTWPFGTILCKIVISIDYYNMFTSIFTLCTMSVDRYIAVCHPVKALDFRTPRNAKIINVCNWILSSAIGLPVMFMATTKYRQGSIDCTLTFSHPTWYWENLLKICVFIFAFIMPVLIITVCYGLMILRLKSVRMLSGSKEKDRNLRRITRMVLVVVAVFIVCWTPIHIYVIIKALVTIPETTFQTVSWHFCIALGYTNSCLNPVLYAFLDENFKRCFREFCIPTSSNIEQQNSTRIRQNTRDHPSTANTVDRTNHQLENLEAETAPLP
- assay protocol: Human Mu Opioid Receptor Binding Assay (CHO membranes, 3H-Damgo)
- condition label: read-out: hKi μ
- Protocol: Membranes from Chinese Hamster Ovary cells expressing the human […] opioid receptor (Perkin Elmer #RBHOMM400UA) are homogenized in assay buffer (50 mM Tris, pH 7.5 with 5 mM MgCl2) using a glass tissue grinder, Teflon pestle and a Steadfast Stirrer (Fisher Scientific). […] Nonspecific binding is determined in the presence of 1 μM unlabelled Damgo (Tocris #1171).
property label: log10 Ki (log10 of the value in nM)

[
  {
    "compound": "Cc1cc(O)cc(C)c1C[C@H](N)C(=O)N(Cc1ccccc1)[C@@H](C)c1nc(-c2ccccc2)c[nH]1",
    "log10 Ki": 0.59
  },
  {
    "compound": "CCN(C(=O)[C@@H](N)Cc1ccc(O)cc1)[C@H](C)c1nc(-c2ccccc2)c[nH]1",
    "log10 Ki": 1.46
  },
  {
    "compound": "Cc1cc(O)cc(C)c1C[C@H](N)C(=O)N(Cc1ccnc2ccccc12)[C@@H](C)c1nc(-c2ccccc2)c[nH]1",
    "log10 Ki": 0.75
  },
  {
    "compound": "COc1cccc(CN(C(=O)[C@@H](N)Cc2c(C)cc(O)cc2C)[C@@H](C)c2nc(-c3ccccc3)c[nH]2)c1",
    "log10 Ki": 0.84
  },
  {
    "compound": "Cc1cc(O)cc(C)c1C[C@H](N)C(=O)N(CC1CCN(C(=O)OCc2ccccc2)CC1)[C@@H](C)c1nc(-c2ccccc2)c[nH]1",
    "log10 Ki": 1.12
  },
  {
    "compound": "Cc1cc(O)cc(C)c1C[C@H](N)C(=O)N(Cc1ccncc1)[C@@H](C)c1nc(-c2ccccc2)c[nH]1",
    "log10 Ki": -0.18
  },
  {
    "compound": "COc1ccc(CN(Cc2nc(-c3ccccc3)c[nH]2)C(=O)[C@@H](N)Cc2c(C)cc(O)cc2C)cc1OC",
    "log10 Ki": 0.45
  },
  {
    "compound": "Cc1cc(O)cc(C)c1C[C@H](N)C(=O)N(Cc1ccco1)[C@@H](C)c1nc(-c2ccccc2)c[nH]1",
    "log10 Ki": 0.04
  },
  {
    "compound": "CC(C)[C@@H](c1nc(-c2ccccc2)c[nH]1)N(C(=O)[C@@H](N)Cc1cccc(C(N)=O)c1)C(C)C",
    "log10 Ki": 2.65
  },
  {
    "compound": "CC(C)N(C(=O)[C@@H](N)Cc1ccc(O)cc1)[C@@H](Cc1ccccc1)c1nc(-c2ccccc2)c[nH]1",
    "log10 Ki": -0.64
  },
  {
    "compound": "Cc1cc(O)cc(C)c1C[C@H](N)C(=O)N(Cc1nc(-c2cncnc2)c(C)[nH]1)C(C)C",
    "log10 Ki": 0.49
  },
  {
    "compound": "CCN(C(=O)[C@@H](N)Cc1ccc(O)cc1)[C@@H](C)c1nc(-c2ccccc2)c[nH]1",
    "log10 Ki": 0.18
  },
  {
    "compound": "Cc1cc(O)cc(C)c1C[C@H](N)C(=O)N(Cc1ccccn1)[C@@H](C)c1nc(-c2ccccc2)c[nH]1",
    "log10 Ki": -0.05
  },
  {
    "compound": "C[C@@H](c1nc(Cc2ccccc2)c[nH]1)N(C)C(=O)[C@@H](N)Cc1ccc(O)cc1",
    "log10 Ki": 0.89
  },
  {
    "compound": "Cc1cc(C(N)=O)cc(C)c1C[C@H](N)C(=O)N(C(C)c1ccccc1)[C@@H](C)c1nc(-c2ccccc2)c[nH]1 (single isomer, unassigned) [Cpd 111]",
    "log10 Ki": 0.81
  },
  {
    "compound": "Cc1cc(O)cc(C)c1C[C@H](N)C(=O)N(Cc1nc(-c2ccc(F)cc2)c(C)[nH]1)C(C)C",
    "log10 Ki": -0.17
  },
  {
    "compound": "COC(=O)c1cc(CN(Cc2nc(-c3ccccc3)c[nH]2)C(=O)[C@@H](N)Cc2c(C)cc(C(N)=O)cc2C)ccc1OC",
    "log10 Ki": 0.83
  },
  {
    "compound": "Cc1cc(O)cc(C)c1C[C@H](N)C(=O)N(CC(=O)O)Cc1nc(-c2ccccc2)c[nH]1",
    "log10 Ki": 1.40
  },
  {
    "compound": "Cc1[nH]c(CN(C(=O)[C@@H](N)Cc2ccc(O)cc2)C(C)C)nc1-c1ccccc1",
    "log10 Ki": 0.00
  },
  {
    "compound": "COc1ccc(CN(C(=O)[C@@H](N)Cc2c(C)cc(C(N)=O)cc2C)[C@@H](C)c2nc(-c3cccc(C(N)=O)c3)c[nH]2)cc1OC",
    "log10 Ki": 1.54
  },
  {
    "compound": "Cc1cc(C(N)=O)cc(C)c1C[C@H](N)C(=O)N(Cc1ccccc1)[C@@H](C)c1nc(-c2ccc(Cl)cc2)c(C)[nH]1",
    "log10 Ki": 0.93
  },
  {
    "compound": "Cc1cc(O)cc(C)c1C[C@H](N)C(=O)N(Cc1ccc(Cl)c(Cl)c1)Cc1nc(-c2ccccc2)c[nH]1",
    "log10 Ki": 1.10
  },
  {
    "compound": "Cc1cc(O)cc(C)c1C[C@H](N)C(=O)N(Cc1nc(-c2cccc(Cl)c2)c(C)[nH]1)C(C)C",
    "log10 Ki": 0.41
  },
  {
    "compound": "Cc1cc(O)cc(C)c1C[C@H](N)C(=O)N(Cc1nc(-c2ccc(CCC(=O)O)cc2)c(C)[nH]1)C(C)C",
    "log10 Ki": 1.54
  },
  {
    "compound": "CC(=O)Oc1ccc(CN(C(=O)[C@@H](N)Cc2c(C)cc(O)cc2C)[C@@H](C)c2nc(-c3ccccc3)c[nH]2)cc1",
    "log10 Ki": 0.76
  },
  {
    "compound": "Cc1cc(O)cc(C)c1C[C@H](N)C(=O)N(C(C)C)[C@@H](CC(C)C)c1nc(-c2ccccc2)c[nH]1",
    "log10 Ki": 1.90
  },
  {
    "compound": "Cc1cc(O)cc(C)c1CC(N)C(=O)N(Cc1ccccc1)C(C)c1nc(-c2ccc(F)cc2)c[nH]1 (stereo not shown)",
    "log10 Ki": 0.67
  },
  {
    "compound": "COC(=O)c1cc(CN(C(=O)[C@@H](N)Cc2c(C)cc(C(N)=O)cc2C)[C@@H](C)c2nc(-c3ccccc3)c[nH]2)ccc1OC",
    "log10 Ki": 0.34
  }
]
